B1: Transitional endoplasmic reticulum ATPase, residues 26 to 106; numbered along this chain, P55072 (parent)
chain: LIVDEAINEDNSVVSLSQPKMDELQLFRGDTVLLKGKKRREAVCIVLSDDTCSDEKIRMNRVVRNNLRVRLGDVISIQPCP

Variants of: B1
Assay: abundance fitness (aPCA) (normalised: wild type 0, dead -1); higher = more abundant; growth selection in yeast, the domain comes from the species named
Conditions: Homo sapiens
Classify by measured abundance fitness: Fulfilled if it is equal to or exceeds -0.008, Not fulfilled if it is smaller.

Previously resolved entries follow.
mutant id: G72C
label class: Not fulfilled
--
mutant id: V74F
label class: Fulfilled
--
mutant id: A6I
label class: Fulfilled
--
mutant id: Q18A
label class: Fulfilled
--
mutant id: I75D
label class: Not fulfilled
--
mutant id: R61K
label class: Fulfilled
--
mutant id: N11I
label class: Not fulfilled
--
mutant id: P79W
label class: Not fulfilled

**Q:** Dear colleague, could you confirm whether L34V has abundance fitness at or above -0.008?
**A:** Not fulfilled

**Q:** Moving on to the next variant: V43E
**A:** Fulfilled
